Data provenance: paper PMC4959752

Test: Pharmacokinetic study of C2 in Wistar rats (plasma, HPLC, non-compartmental analysis)
Format: in vivo
Conditions: Wistar, rat, plasma, pharmacokinetic model (Kinetica 5.0); read-out: elimination half-life α (t1/2α)
readout_kind: half-life

QUERY: Item under review: O=C(O)CCCC(=O)Nc1ccc(O)c(C(=O)O)c1 . Reported half-life?
RESULT: 18 min

###

Test: Plasma protein binding assay (ultrafiltration)
Type: in vitro ADME
Settings: Wistar, rat, 20 μg/mL, ultrafiltration, 37°C, read-out: % Unbound fraction of C2 in rat plasma ± SD
readout_kind: fraction unbound at 4 h, 20 μg/mL
Give a plain numeric answer without units written out.

QUERY: Item under review: O=C(O)CCCC(=O)Nc1ccc(O)c(C(=O)O)c1 . Reported fraction unbound at 4 h, 20 μg/mL?
RESULT: 0.898

###

Assay: Plasma protein binding assay (ultrafiltration)
Type: in vitro ADME
Conditions: Wistar, rat, 10 μg/mL, ultrafiltration, 37°C, read-out: % Unbound fraction of C2 in rat plasma ± SD
readout_kind: fraction unbound at 4 h, 10 μg/mL
Give a plain numeric answer without units written out.

QUERY: Item under review: O=C(O)CCCC(=O)Nc1ccc(O)c(C(=O)O)c1 [C2] . Reported fraction unbound at 4 h, 10 μg/mL?
RESULT: 0.919

###

Experiment: Plasma protein binding assay (ultrafiltration)
Assay type: in vitro ADME
Details: Wistar, rat, 5 μg/mL, ultrafiltration, 37°C, read-out: % Bound fraction of C2 in rat plasma ± SD (converted)
readout_kind: fraction unbound at 4 h, 5 μg/mL
Give a plain numeric answer without units written out.

QUERY: Item under review: O=C(O)CCCC(=O)Nc1ccc(O)c(C(=O)O)c1 [C2] . Reported fraction unbound at 4 h, 5 μg/mL?
RESULT: 0.925

###

Assay: Plasma protein binding assay (ultrafiltration)
Format: in vitro ADME
Settings: Wistar, rat, 10 μg/mL, ultrafiltration, 37°C, read-out: % Bound fraction of C2 in rat plasma ± SD (converted)
readout_kind: fraction unbound at 4 h, 10 μg/mL

QUERY: Item under review: O=C(O)CCCC(=O)Nc1ccc(O)c(C(=O)O)c1 . Reported fraction unbound at 4 h, 10 μg/mL?
RESULT: 0.919

###

Assay: Pharmacokinetic study of C2 in Wistar rats (plasma, HPLC, non-compartmental analysis)
Format: in vivo
Details: rat, plasma, po; i.g. 100 mg/kg vs i.v. 50 mg/kg, Wistar rats; read-out: F% orally (absolute oral bioavailability)
readout_kind: bioavailability (%)
# output: bare number, implied unit %

QUERY: Item under review: O=C(O)CCCC(=O)Nc1ccc(O)c(C(=O)O)c1 . Reported bioavailability?
RESULT: 13

###

Assay: Pharmacokinetic study of C2 in Wistar rats (plasma, HPLC, non-compartmental analysis)
Assay type: in vivo
Details: rat, plasma; i.g. (oral), single dose 100 mg/kg, Wistar rats
readout_kind: MRT

QUERY: Item under review: O=C(O)CCCC(=O)Nc1ccc(O)c(C(=O)O)c1 . Reported MRT?
RESULT: 49 min

###

Assay: Plasma protein binding assay (ultrafiltration)
Type: in vitro ADME
Settings: Wistar, rat, concentrations of 1 to 20 μg/mL, read-out: unbound fraction
readout_kind: fraction unbound at 4 h

QUERY: Item under review: O=C(O)CCCC(=O)Nc1ccc(O)c(C(=O)O)c1 . Reported fraction unbound at 4 h?
RESULT: 0.898 to 0.925
